So I've got a bunch of compounds here, and I need their pIC50 values.
Target: Recombinant MAPKAPK2 (Homo sapiens, UniProt P49137)
Sequence (P49137 whole entry, species assumed): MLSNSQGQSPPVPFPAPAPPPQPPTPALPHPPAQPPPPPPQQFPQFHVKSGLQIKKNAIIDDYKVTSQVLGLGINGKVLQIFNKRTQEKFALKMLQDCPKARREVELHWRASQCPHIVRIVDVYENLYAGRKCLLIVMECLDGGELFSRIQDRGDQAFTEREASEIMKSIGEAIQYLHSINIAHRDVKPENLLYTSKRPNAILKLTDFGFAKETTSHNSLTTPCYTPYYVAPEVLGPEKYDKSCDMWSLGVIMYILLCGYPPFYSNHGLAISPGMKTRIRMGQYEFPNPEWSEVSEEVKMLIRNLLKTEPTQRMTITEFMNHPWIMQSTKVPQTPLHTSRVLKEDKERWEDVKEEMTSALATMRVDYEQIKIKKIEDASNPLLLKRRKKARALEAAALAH
Experiment: Determination of MK-2 IC50 (HSP-peptide phosphorylation, anion exchange resin capture assay)
Format: biochemical
Details: MK-2 Avg. IC50, Table 2, tricyclic aminocyanopyridine MK-2 inhibitors
By convention, pIC50 is the negative base-10 log of a molar concentration.

*Q* Item: COc1ccc(Nc2c(C#N)c(N)nc3c2Cc2cc(OC)c(OC)cc2O3)cc1 [Example 33] Test system: Recombinant MAPKAPK2 (Homo sapiens, UniProt P49137) Read-out: pIC50 Value: ?
*A* 5.53

*Q* Also check N#Cc1c(N)nc2c(c1N)Cc1cccc(OCC(=O)O)c1O2 [Example 62]
*A* 4.14

*Q* Further, for N#Cc1c(N)nc2c(c1N)Cc1cc(Br)ccc1O2 [Example 49] ?
*A* 4.82

*Q* And for COc1cc2c(cc1OC)Oc1nc(N)c(C#N)c(NCCN(C)C)c1C2 [Example 63] ?
*A* 4.10

*Q* Next compound: N#Cc1c(N)nc2c(c1N)Cc1ccc(OCCO)cc1O2 [Example 10]
*A* 6.32

*Q* Same read-out for N#Cc1c(N)nc2c(c1N)Cc1ccc(CN3CCCCC3)c(O)c1O2 [Example 42] ?
*A* 5.08

*Q* Now the same for N#Cc1c(N)nc2c(c1N)Cc1cc([N+](=O)[O-])ccc1S2(=O)=O [Example 64]
*A* 4.09

*Q* Follow-up item: COc1ccc2c(c1)Oc1nc(N)c(C#N)c(N)c1C2 [Example 27]
*A* 5.76

*Q* Try CCNc1nc2c(c(NCC)c1C#N)Cc1ccc(OCC)cc1O2 [Example 68] next.
*A* 3.83

*Q* Same lookup for COc1cc(N)cc2c1Oc1nc(N)c(C#N)c(N)c1C2 [Example 29] , please.
*A* 5.75

*Q* Here is the next compound: COc1ccc2c(c1)Oc1nc(N)c(C#N)c(N)c1C2 [Example 34]
*A* 5.49

*Q* Consider next the compound COc1cc2c(cc1OC)Oc1nc(N)c(C#N)c(NCc3ccccc3)c1C2 [Example 55] in the same way.
*A* 4.56

*Q* Another compound to check: COc1ccc2c(c1)Cc1c(nc(N)c(C#N)c1N)O2 [Example 58]
*A* 4.37

*Q* Please do the same for N#Cc1c(N)nc2c(c1N)Cc1cccc([N+](=O)[O-])c1O2 [Example 32] as well.
*A* 5.59

*Q* Could you do the same for N#Cc1c(N)nc2c(c1N)Cc1cc(C(=O)O)ccc1O2 [Example 20] , please?
*A* 6.07

*Q* And CC(C)(C)OC(=O)COc1cc2c(cc1OCC(=O)OC(C)(C)C)Oc1nc(N)c(C#N)c(N)c1C2 [Example 45] ?
*A* 4.99

*Q* N#Cc1c(N)nc2c(c1N)Cc1cccc(OCCN)c1O2 [Example 71] ?
*A* 3.79

*Q* # iterate: N#Cc1c(N)nc2c(c1N)Cc1cccc(OCCN3CCCC3)c1O2 [Example 59]
*A* 4.34

*Q* Next record, please: C=CCOc1cc2c(cc1OCC=C)Oc1nc(N)c(C#N)c(N)c1C2 [Example 43]
*A* 5.02

---

Biological target: Recombinant MAPKAPK2 (Homo sapiens, UniProt P49137)
Assay: Determination of MK-2 IC50 (HSP-peptide phosphorylation, anion exchange resin capture assay)
Format: biochemical
Settings: MK-2 Avg. IC50, Table I, aminocyanopyridine MK-2 inhibitors
Exercise: state measured log10 IC50 for each of the molecules provided.
Each number you see is log10 of IC50, and the unit inside the log is µM.

*Q* Query (molecule): N#Cc1c(N)nc2c(c1-c1cccnc1)CCc1n[nH]cc1-2 ; field requested: log10 IC50
*A* 1.80

*Q* One more molecule: CC1Cc2n[nH]cc2-c2nc(N)c(C#N)c(-c3ccco3)c21 (stereo not shown)
*A* 1.50

*Q* Entry to check: N#Cc1c(-c2ccc(F)cc2)cc(-c2ccco2)nc1N
*A* 2.22

*Q* Field entry: N#Cc1c(-c2cnc[nH]2)cc(-c2ccco2)nc1N [Example 21]
*A* 0.77

*Q* Same read-out for N#Cc1c(-c2ccco2)cc(-c2c[nH]c3ccccc23)nc1N [Example 102] ?
*A* 1.94

*Q* What about this molecule? N#Cc1c(N)nc2c(c1-c1cccc(C(=O)O)c1)CCc1[nH]ncc1-2
*A* 1.62

*Q* Same read-out for N#Cc1c(N)nc2c(c1-c1ccco1)CCc1cc(O)ccc1-2 ?
*A* 0.54

*Q* Same lookup for N#Cc1c(-c2ccco2)cc(-c2ccc3c(c2)Nc2ccccc2S3)nc1N , please.
*A* 2.20

*Q* Entry to check: COc1ccccc1-c1cc(-c2ccc(O)cc2)nc(N)c1C#N
*A* 2.26

*Q* Another molecule to look at: N#Cc1c(N)nc(SCC(=O)c2ccc(Cl)cc2)c(C#N)c1-c1ccco1
*A* 1.80

*Q* For N#Cc1c(-c2cccc(F)c2)cc(-c2ccc(O)cc2)nc1N then?
*A* 1.98

*Q* Could you do the same for COc1ccc(-c2cc(-c3nnc[nH]3)c(C#N)c(N)n2)cc1 , please?
*A* 1.24

*Q* Please give the result for N#Cc1c(-c2ccc(C(F)(F)F)cc2F)cc(-c2ccco2)nc1N too.
*A* 2.12

*Q* Subsequent entry: N#Cc1c(-c2ccccc2F)cc(-c2ccco2)nc1N [Example 13]
*A* 0.61

*Q* Okay, and CC1(C)Cc2n[nH]cc2-c2nc(N)c(C#N)c(-c3ccco3)c21 ?
*A* 2.04

*Q* N#Cc1c(N)nc2c(c1-c1ccco1)C1CCC2C1 (stereo not shown) , same question.
*A* 2.09

*Q* Record: Cn1ccc(-c2cc(-c3ccco3)c(C#N)c(N)n2)c1
*A* 1.51

*Q* Okay, and N#Cc1c(-c2ccccc2B(O)O)cc(-c2ccco2)nc1N ?
*A* 2.00

*Q* Moving on to N#Cc1c(N)nc2c(c1-c1nnc[nH]1)CCc1cc(C(=O)O)ccc1-2
*A* 0.76

---

Target: Recombinant MAPKAPK2 (Homo sapiens, UniProt P49137)
Assay: Determination of MK-2 IC50 (HSP-peptide phosphorylation, anion exchange resin capture assay)
Format: biochemical
Details: MK-2 Avg. IC50, Table 2, tricyclic aminocyanopyridine MK-2 inhibitors
TEST_READOUT: pIC50
Note: pIC50 values are expressed as the negative base-10 logarithm of concentration in M.

*Q* Request: pIC50, test system Recombinant MAPKAPK2 (Homo sapiens, UniProt P49137), entry CNc1c(C#N)c(N)nc2c1Cc1cc(OC)c(OC)cc1O2
*A* 5.77

*Q* Likewise for N#Cc1c(N)nc2c(c1N)Cc1cc(N)ccc1S2(=O)=O ?
*A* 4.84

*Q* Can you handle CCOCCOc1cc2c(cc1O)Cc1c(nc(N)c(C#N)c1N)O2 next?
*A* 6.21

*Q* Next entry: N#Cc1c(N)nc2c(c1N)Cc1cc([N+](=O)[O-])ccc1O2
*A* 4.21

*Q* Query CN(C)c1ccc2c(c1)Cc1c(nc(N)c(C#N)c1N)O2 next
*A* 4.75

---

Target: Recombinant MAPKAPK2 (Homo sapiens, UniProt P49137)
Assay: Determination of MK-2 IC50 (HSP-peptide phosphorylation, anion exchange resin capture assay)
Type: biochemical
Conditions: MK-2 Avg. IC50, Table I, aminocyanopyridine MK-2 inhibitors
TEST_READOUT: pIC50
Note: pIC50 values are expressed as the negative base-10 logarithm of concentration in M.

*Q* Bench note: what pIC50 did N#Cc1c(N)nc2c(c1N)CC(CO)O2 (stereo not shown) show?
*A* 3.97

*Q* Repeat with N#Cc1c(-c2cnc[nH]2)cc(-c2ccc(C(=O)O)cc2)nc1N
*A* 5.08

*Q* Again, but for N#Cc1c(-c2ccco2)cc(-c2ccc(Cl)c(Cl)c2)nc1N
*A* 3.81

*Q* Another molecule to look at: CC1Cc2c(nc(N)c(C#N)c2-c2ccco2)-c2ccccc21 (stereo not shown)
*A* 3.92

*Q* Lookup N#Cc1c(-c2ccco2)cc(-c2nccs2)nc1N
*A* 3.78

*Q* Try CCCCC1Cc2c(nc(N)c(C#N)c2N)O1 (stereo not shown) next.
*A* 4.31

*Q* Request: N#Cc1c(-c2ccccc2F)cc(-c2ccco2)nc1N [Example 14]
*A* 5.36

*Q* Also N#Cc1c(N)nc2c(c1-c1ccco1)CCc1[nH]ccc1-2 , if possible.
*A* 5.03

*Q* And CCc1c(C#N)c(N)nc2[nH]nc(N)c12 ?
*A* 3.84

*Q* Would you kindly repeat that for N#Cc1c(-c2ccco2)cc(-c2cccc3cccc(O)c23)nc1N ?
*A* 3.82

*Q* Could you do the same for N#Cc1c(-c2cnc[nH]2)cc(-c2ccccc2)nc1N [Example 35] , please?
*A* 5.03

*Q* Same lookup for N#Cc1c(-c2ccccc2O)cc(-c2ccco2)nc1N , please.
*A* 3.73

*Q* How about this molecule: N#Cc1c(-c2ccccc2F)cc(-c2cccc(O)c2)nc1N
*A* 4.62

*Q* Please give the result for Cn1cnc(-c2cc(-c3ccccc3)nc(N)c2C#N)c1 too.
*A* 5.12

*Q* Record: N#Cc1c(-c2ccccc2F)cc(-c2ccc[nH]2)nc1N
*A* 4.53

*Q* Check N#Cc1c(-c2cnc[nH]2)cc(-c2ccc(O)cc2)nc1N too.
*A* 5.44

*Q* Param item: N#Cc1c(N)nc2ccccc2c1N
*A* 4.34

*Q* Another molecule to check: C=CCOCC1Cc2c(nc(N)c(C#N)c2N)O1 (stereo not shown)
*A* 3.93

*Q* Lookup COc1cccc(-c2c(C#N)c(N)nc3c2CCc2[nH]ncc2-3)c1
*A* 4.56

*Q* Field entry: N#Cc1c(-c2ccco2)cc(-c2ccco2)nc1N
*A* 4.32

*Q* N#Cc1c(N)nc2c(c1-c1ccco1)CCc1ccccc1-2 , same question.
*A* 5.03

*Q* Then this molecule: N#Cc1c(-c2ccccc2F)cc(-c2ccc(O)c(O)c2)nc1N [Example 32]
*A* 5.04

*Q* Same again, this time with COc1ccc(-c2cc(-c3ccccc3F)c(C#N)c(N)n2)cc1
*A* 4.15

*Q* Please give the result for N#Cc1c(N)nc2c(c1-c1ccccc1OC(F)F)CCc1[nH]ncc1-2 too.
*A* 4.02

*Q* Continue with N#Cc1c(N)nc2c(c1-c1ccccc1)CCc1n[nH]cc1-2
*A* 5.56

*Q* Would you kindly repeat that for N#Cc1c(-c2ccco2)cc(-c2ccccn2)nc1N ?
*A* 3.83

*Q* Same for N#Cc1c(-c2ccccc2Br)cc(-c2ccco2)nc1N
*A* 4.58

*Q* Please do the same for N#Cc1c(N)nc2c(c1-c1nnc[nH]1)CCc1ccccc1-2 as well.
*A* 4.88

*Q* Try N#Cc1c(-c2ccc(Oc3ccccc3)cc2)cc(-c2ccco2)nc1N next.
*A* 4.23

*Q* Also, N#Cc1c(-c2ccccc2F)cc(-c2ccc(O)c(O)c2)nc1N [Example 27] please.
*A* 5.12

*Q* Check N#Cc1c(N)nc2c(c1-c1ccco1)CCc1c[nH]cc1-2 too.
*A* 5.21

*Q* Entry to check: N#Cc1c(-c2ccco2)cc(-c2ccncc2)nc1N
*A* 4.40

*Q* Please do the same for N#Cc1c(-c2cnc[nH]2)cc(-c2ccco2)nc1N [Example 17] as well.
*A* 5.31

*Q* Next entry: CC(C)(C)NS(=O)(=O)c1ccc(-c2cc(-c3ccccc3)c(C#N)c(N)n2)cc1
*A* 4.17

*Q* Also need N#Cc1c(-c2ccccc2F)cc(-c2ccco2)nc1Nc1ccccc1 , thanks.
*A* 3.79

*Q* Would you kindly repeat that for COC(=O)c1cccc(-c2c(C#N)c(N)nc3c2CCc2[nH]ncc2-3)c1 ?
*A* 3.72

*Q* And for CC(C)(C)OCC1Cc2c(nc(N)c(C#N)c2N)O1 (stereo not shown) ?
*A* 3.78

*Q* Another molecule: N#Cc1c(-c2ccco2)cc(-c2cn[nH]c2)nc1N
*A* 4.94

*Q* # iterate: COc1ccccc1-c1c(C#N)c(N)nc2c1CCc1n[nH]cc1-2
*A* 3.87

*Q* How about this molecule: N#Cc1c(N)nc2c(c1-c1ccc(F)cc1)CCc1n[nH]cc1-2
*A* 4.89
